A collection of compounds and their measured pKi
Biological target: human 5-HT6 receptor (Homo sapiens, UniProt P50406)
Construct: host or cells: CHO-K1 cells, stably transfected; membranes prepared in house
Sequence (P50406 whole entry): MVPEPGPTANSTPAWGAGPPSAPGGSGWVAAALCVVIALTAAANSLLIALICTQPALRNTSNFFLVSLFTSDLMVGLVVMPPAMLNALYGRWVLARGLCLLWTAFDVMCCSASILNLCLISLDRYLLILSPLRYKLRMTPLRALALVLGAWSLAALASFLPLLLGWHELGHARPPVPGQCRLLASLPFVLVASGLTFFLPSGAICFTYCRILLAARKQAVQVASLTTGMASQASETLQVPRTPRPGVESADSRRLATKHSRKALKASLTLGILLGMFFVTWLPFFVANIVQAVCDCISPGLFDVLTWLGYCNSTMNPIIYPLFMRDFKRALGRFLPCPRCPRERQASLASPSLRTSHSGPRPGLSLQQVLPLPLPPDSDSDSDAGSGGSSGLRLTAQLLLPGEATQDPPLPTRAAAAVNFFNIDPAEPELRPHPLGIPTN
Test: Human 5-HT6 Receptor Binding Assay ([3H]LSD displacement, scintillation beads)
Details: membranes of CHO-K1 cells with recombinant human 5-HT6, 4 nM [3H]LSD; Table 1, class symbols; read-out: h5-HT6 (Ki)
pKi: −log10 of the molar value.

The cases that follow already have their pKi on record.
1. CC12CCNCC1Oc1cc(S(=O)(=O)c3cccc(OC(F)(F)F)c3)ccc12 (stereo not drawn) ... > 6.30
2. O=S(=O)(Oc1ccc2c(c1)C1CCNCC1O2)c1csc(C(F)(F)F)c1-c1ccccc1 (stereo not drawn) ... 6.00 to 6.30
3. O=S(=O)(c1ccc(Oc2ccccc2)cc1)c1ccc2c(c1)OC1CNCCC21 (stereo not drawn) ... > 6.30
4. CC12CCNCC1Oc1cc(S(=O)(=O)c3cncc(C(F)(F)F)c3)ccc12 (stereo not drawn) ... < 6.00

Give its pKi value. Item: CC1(C)NCCc2c1oc1cc(S(=O)(=O)c3cncc(F)c3)ccc21
> 6.30

Then this compound: Cc1oncc1S(=O)(=O)Oc1ccc2c(c1)OC1CNCCC21 (stereo not drawn)
< 6.00

Again, but for O=S(=O)(c1cccc(OC(F)(F)F)c1)c1ccc2c3c([nH]c2c1)C1(CCCOC1)NCC3 (single isomer, unassigned)
> 6.30

Repeat with Cc1ccc(S(=O)(=O)Oc2ccc3c(c2)C2CCNCC2O3)cc1 (stereo not drawn)
> 6.30

Field entry: O=S(=O)(Oc1ccc2c(c1)OC1CNCCC21)c1csc(C(F)(F)F)c1-c1ccccc1 (stereo not drawn)
> 6.30

Try this compound next: O=S(=O)(NC1CCCCC1)c1ccc2c(c1)C1CCNCC1O2 (stereo not drawn)
< 6.00

Ok, now COc1cc(F)cc(S(=O)(=O)c2ccc3c(c2)OC2CNCCC32)c1 (stereo not drawn) [Example 407]
> 6.30

Entry to check: O=S(=O)(Nc1ccc2c(c1)C1CCNCC1O2)c1cccc(Cl)c1Cl (stereo not drawn)
> 6.30

What do you get for CC(=O)N(C)CC1NCCc2c1oc1ccc(S(=O)(=O)c3cccc(F)c3)cc21 (stereo not drawn) ?
> 6.30

Next compound: CN(C)c1cccc(S(=O)(=O)c2ccc3oc4c(c3c2)CCNC4)c1
< 6.00

Subsequent entry: O=S(=O)(c1ccc2c(c1)OC1CNCCC21)c1cccnc1Cl (stereo not drawn)
> 6.30

Likewise for CC(C)Oc1cccc(S(=O)(=O)c2ccc3c(c2)OC2C3CCNC23CCC3)c1 (stereo not drawn) ?
> 6.30

Lookup O=S(=O)(c1cncc(F)c1)c1ccc2c3c(oc2c1)CNCC3
> 6.30

Request: O=S(=O)(c1ccccc1)c1ccc2c3c(oc2c1)[C@]1(CCOC1)NCC3 (single isomer, unassigned)
> 6.30

Try COc1cc(S(=O)(=O)c2ccc3c4c(oc3c2)C2(CCOC2)NCC4(C)C)c[n+]([O-])c1 (stereo not drawn) next.
< 6.00

Repeat with O=S(=O)(c1cccc(Cl)c1Cl)c1cccc2c1OC1CNCCC21 (stereo not drawn)
> 6.30

Follow-up entry: O=S(=O)(c1cccc(F)c1)c1ccc2c3c(oc2c1)C1(COC1)NCC3
> 6.30

Next record, please: O=S(=O)(c1cccc(F)c1)c1ccc2oc3c(c2c1)CCNC3CC(F)(F)F (stereo not drawn)
< 6.00

Now consider O=S(=O)(c1cccc(Cl)c1)c1ccc2c3c(oc2c1)C(C1CC1)NCC3 (stereo not drawn) and answer again.
> 6.30

Next compound: O=S(=O)(Oc1ccc2c(c1)C1CCNCC1O2)c1ccc(F)cc1F (stereo not drawn)
< 6.00

And O=S(=O)(c1ccc(F)c(Cl)c1)c1ccc2oc3c(c2c1)CCNC3 ?
> 6.30

Please give the result for CC1(C)NCCc2c1oc1cc(S(=O)(=O)c3cc(Cl)cnc3O)ccc21 too.
< 6.00

* * *

Counter-ions that a name gives are not always drawn.
In this section we review reported melting point values for a set of compounds.

Consider the reported melting point for these compounds:
1) CC12CCNCC1Oc1ccc(S(=O)(=O)c3ccc(F)cc3)cc12 (stereo not shown) [Example 92] ... 163 to 165 °C
2) CN(C)C(=O)c1cccc(S(=O)(=O)c2ccc3c4c(oc3c2)CNCC4)c1 (as salt: hydrochloride) [Example 474] ... 262 to 265 °C
3) CC1(C)CNC2(CCOCC2)c2oc3cc(S(=O)(=O)c4cccc(F)c4)ccc3c21 (as salt: HCl) [Example 2] ... 286 to 288 °C
4) O=S(=O)(c1cccc(O)c1)c1ccc2c3c(oc2c1)CNCC3 [Example 627] ... 279 to 281 °C

Report melting point for COc1c(F)cc(F)cc1S(=O)(=O)c1ccc2c(c1)OC1CNCCC21C (stereo not shown) (as salt: HCl) [Example 486] please.
259 to 261 °C

Field entry: CC1(C)CNC(C2CCOCC2)c2oc3cc(S(=O)(=O)c4cccc(F)c4)ccc3c21 (racemic) (as salt: HCl) [Example 45]
248 to 252 °C

Next compound up: Cc1c(OCc2cccnc2)cccc1S(=O)(=O)c1ccc2c(c1)OC1CNCCC21 (stereo not shown) (as salt: HCl) [Example 566]
179 to 182 °C

Try CN(C)C(=O)CC1(C)NCCc2c1oc1cc(S(=O)(=O)c3cccc(F)c3)ccc21 (racemic) (as salt: HCl) [Example 40] next.
220 to 223 °C

Another: O=S(=O)(c1cccc(F)c1)c1ccc2c3c(oc2c1)C1(CCOCC1F)NCC3 (single isomer, unassigned) [Example 55]
251 to 260 °C

How about this compound: COCCOc1cccc(S(=O)(=O)c2ccc3c(c2)OC2CNCCC32)c1 (stereo not shown) (as salt: HCl) [Example 558]
210 to 213 °C

# iterate: COCC1(COC)NCCc2c1oc1cc(S(=O)(=O)c3cccc(F)c3)ccc21 (as salt: HCl) [Example 39]
196 to 198 °C

Ok, now O=S(=O)(c1cccc(F)c1)c1ccc2c3c(oc2c1)C1(COC1)NCC3 [Example 48]
153 to 155 °C

Another compound: Cc1c(Cl)cccc1S(=O)(=O)c1ccc2c3c(oc2c1)CNCC3 [Example 82]
258 to 259 °C

Another compound: COC(=O)CCCCOc1cccc(S(=O)(=O)c2ccc3c(c2)OC2CNCCC32)c1 (stereo not shown) (as salt: HCl) [Example 556]
179 to 181 °C

Input CC12CCNCC1Oc1cc(S(=O)(=O)c3ccccn3)ccc12 (racemic) (as salt: HCl) [Example 8]
282 to 283 °C

Please answer likewise for COc1cc(OC)cc(S(=O)(=O)c2ccc3c(c2)OC2CNCCC32C)c1 (stereo not shown) (as salt: HCl) [Example 489]
254 to 255 °C

* * *

Target: human 5-HT6 receptor (Homo sapiens, UniProt P50406)
Construct: host or cells: CHO-K1 cells, stably transfected; membranes prepared in house
Assay: Human 5-HT6 Receptor Binding Assay ([3H]LSD displacement, scintillation beads)
Conditions: membranes of CHO-K1 cells with recombinant human 5-HT6, 4 nM [3H]LSD; Table 1, class symbols; read-out: h5-HT6 (Ki)
MEASURED QUANTITY: Ki

Before answering, review these 5 worked examples.
1) O=S(=O)(Oc1ccc2c(c1)OC1CNCCC21)c1ccc(-n2cccn2)cc1 (stereo not drawn) ... < 500 nM
2) O=S(=O)(c1cccc(F)c1)c1ccc2c3c(oc2c1)C(C(F)(F)F)NCC3 (stereo not drawn) ... < 500 nM
3) Cc1cncc(Oc2cccc(S(=O)(=O)c3ccc4c(c3)OC3CNCCC43)c2)n1 (stereo not drawn) ... < 500 nM
4) O=S(=O)(Oc1ccc2c(c1)OC1CNCCC21)c1ccc(Cl)c(Cl)c1 (stereo not drawn) ... < 500 nM
5) CCN1CCC2c3ccc(S(=O)(=O)c4ccccc4)cc3OC2C1 (stereo not drawn) ... 500 to 1000 nM

Look up Ki: COc1ccc(S(=O)(=O)Oc2ccc3c(c2)OC2CNCCC32)cc1 (stereo not drawn)
< 500 nM

* * *

Target: human 5-HT6 receptor (Homo sapiens, UniProt P50406)
Construct: host or cells: CHO-K1 cells, stably transfected; membranes prepared in house
Assay: Human 5-HT6 Receptor Binding Assay ([3H]LSD displacement, scintillation beads)
Conditions: membranes of CHO-K1 cells with recombinant human 5-HT6, 4 nM [3H]LSD; Table 1, class symbols; read-out: h5-HT6 (Ki)
Method: Human 5-HT6 Receptor Binding Assay Membranes were prepared from CHO—K1 cells stably transfected with the human 5-HT6 receptor (Euroscreen; ES-316-C). […] The membranes were centrifuged at 40,000×g for 30 min at 4° C. and the pellets were resuspended in membrane buffer containing 250 mM sucrose, and protein concentration was determined using the Coomassie Plus kit (Pierce Biotechnology, Rockford, Ill.). […]
MEASURED QUANTITY: Ki

1) COc1cc(OC(C)C)cc(S(=O)(=O)c2ccc3c4c(oc3c2)CNCC4(C)C)c1 ... < 500 nM
2) O=S(=O)(c1ccc2c(c1)OC1CNCCC21)C1CCCCC1 (stereo not drawn) ... > 1000 nM
3) CC1(C2CC2)NCCc2c1oc1cc(S(=O)(=O)c3cccc(F)c3)ccc21 (racemic) ... < 500 nM
4) O=S(=O)(c1cccc(F)c1)c1ccc2oc3c(c2c1)CCNC3C(F)(F)F (stereo not drawn) ... > 1000 nM
5) O=S(=O)(c1ccc2c(c1)OC1CNCCC21)c1cccc(F)c1F (stereo not drawn) [Example 399] ... < 500 nM

Proceeding to the next compound to report its Ki.
Requested read-out Ki, target or system human 5-HT6 receptor (Homo sapiens, UniProt P50406), entry COc1ccc(S(=O)(=O)c2ccc3c(c2)OC2CNCCC32C)cc1 (racemic)
500 to 1000 nM
